Target system: ALR2 in ARPE-19 cells (Homo sapiens, UniProt P15121)
Construct: The cell lysate was collected for analysis; endogenous in cells; host or cells: ARPE-19
Test: Inhibition of ALR2 in ARPE-19 cells
Assay type: cell-based
Condition label: normoglycemic (5 mM glucose) ARPE-19 cells, 24 hr, each compound at its human lens IC50 concentration
Method: The cells were shifted to DMEM-low glucose with 10% FBS, 12 hr before the experiment. The cells were washed with PBS and incubated in FBS-free medium and 5 mM/25 mM (normoglycemic condition/hyperglycemic condition) glucose, for 24 hr, with or without the drug. Following the drug treatment, the cells were washed with ice cold PBS, trypsinized, and counted. Cells were resuspended in ALR assay buffer, homogenized for 30 seconds, and centrifuged at 10000 rpm for 30 minutes. […]
Assign class by ALR2 inhibition (%): not lower than 70% means true (1); lower than 70% means false (0).

Compound	Assigned class
COc1cc(O)c2c(=O)cc(-c3ccccc3)oc2c1OC	true (1)
COc1cc2oc(-c3ccc(O)cc3)c(O[C@@H]3O[C@H](CO)[C@H](O)[C@H](O)[C@H]3O)c(=O)c2c(O)c1OC [Eupalitin-3-O-galactoside]	false (0)
CC(/C=C1\SC(=S)N(CC(=O)O)C1=O)=C\c1ccccc1 [Epalrestat, reference compound]	true (1)

Exam item: Threshold query (ALR2 inhibition (%) >= 70%) on O=C(OCC1=C[C@@H](O)[C@@H]2C=CO[C@@H](O[C@@H]3O[C@H](CO)[C@@H](O)[C@H](O)[C@H]3O)[C@H]12)c1ccc(O)cc1 [Agnuside]
Marked response: true (1)

All values here come from paper PMC8959960.
